Provenance of the data: patent US20240279334A1

molecular target: T1, recombinant human CD3E (ECD) (human, UniProt P07766 23-126); test: ELISA with human CD3E; % Binding plotted against pH (6.0 to 7.4), relative to pH 6.0; Fab concentration not shown on the sheet
T1 construct: extracellular domain; This is the coated antigen of the ELISA; also called extracellular domain of human CD3E
T1 sequence (P07766 23-126): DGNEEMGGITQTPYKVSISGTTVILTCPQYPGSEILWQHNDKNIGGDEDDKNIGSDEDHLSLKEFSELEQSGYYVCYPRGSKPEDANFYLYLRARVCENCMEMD
RECORDED ENDPOINT: binding result

Below: 4 binders and their reported binding result.
1. h10.v23 (Fab) (Fab, V domains shown, Purified and used as a Fab; also called anti-CD3 clone h10.v23) VH: EVQLVQSGAEVKKPGASVKVSCKASGYTFTSYYVHWVRQAPGQGLEWIGWIYPGDFNTKFNEKFKGRVTLTADTSASTAYMELSSLRSEDTAVYYCARDHYGYYYFDYWGQGTLVTVSS VL: DIVMTQSPDSLAVSLGERATINCKSSQSLLNSRTRHNYLAWYQQKPGQPPKLLIYWATTRASGVPDRFSGSGSGTDFTLTISSLQAEDVAVYYCIQSYTGRTFGGGTKVEIK	binds
2. h10.v49 (Fab) (Fab, V domains shown, Tested as a Fab) VH: EVQLVQSGAEVKKPGASVKVSCKASGYTFTSYYYHWVRQAPGQGLEWIGWIYPGDFNTKFNEKFKGRVTLTADTSASTAYMELSSLRSEDTAVYYCARDHYHQYYFDYWGQGTLVTVSS VL: DIVMTQSPDSLAVSLGERATINCKSSQSLLNSRTRHNYLAWYQQKPGQPPKLLIYWATTRASGVPDRFSGSGSGTDFTLTISSLQAEDVAVYYCIQSYTGRTFGGGTKVEIK	binds
3. h10.v1 (Fab) (Fab, V domains shown, Tested as a Fab; the Fab constant domains are not; also called non-pH-selective conventional control clone; conventional anti-CD3 control antibody) VH: EVQLVQSGAEVKKPGASVKVSCKASGYTFTSYYVHWVRQAPGQGLEWIGWIYPGDFNTKFNEKFKGRVTLTADTSASTAYMELSSLRSEDTAVYYCARDAYSYYYFDYWGQGTLVTVSS VL: DIVMTQSPDSLAVSLGERATINCKSSQSLLNSRTRKNYLAWYQQKPGQPPKLLIYWATTRDSGVPDRFSGSGSGTDFTLTISSLQAEDVAVYYCIQSYTTRTFGGGTKVEIK	binds
4. h10.v27 (Fab) (Fab, V domains shown, Tested as a Fab) VH: EVQLVQSGAEVKKPGASVKVSCKASGYTFTSYYYHWVRQAPGQGLEWIGWIYPGDFNTKFNEKFKGRVTLTADTSASTAYMELSSLRSEDTAVYYCARDHYGYYYFDYWGQGTLVTVSS VL: DIVMTQSPDSLAVSLGERATINCKSSQSLLNSRTRHNYLAWYQQKPGQPPKLLIYWATTRDSGVPDRFSGSGSGTDFTLTISSLQAEDVAVYYCIQSYTGRTFGGGTKVEIK	binds

Now consider the entry below.
So what does the record say about binding result for h10.v38 (Fab) (Fab, V domains shown, Tested as a Fab) VH: EVQLVQSGAEVKKPGASVKVSCKASGYTFTSYYYHWVRQAPGQGLEWIGWIYPGDFNTKFNEKFKGRVTLTADTSASTAYMELSSLRSEDTAVYYCARDHYGYYYFDYWGQGTLVTVSS VL: DIVMTQSPDSLAVSLGERATINCKSSQSLLNSRTRHNYLAWYQQKPGQPPKLLIYWATTRASGVPDRFSGSGSGTDFTLTISSLQAEDVAVYYCIQSYTGRTFGGGTKVEIK ?
binds
